Assay: Oral bioavailability in Han Wistar rat at 7.4 to 14.7 umol/kg
Format: ADME, organism-based
Settings: Han Wistar, in vivo
Endpoint name: bioavailability (%)
One number for each entry, in %.

Field: example entries. Status: answers known.
| Structure as smiles | Endpoint value |
| --- | --- |
| O=C(N[C@H]1C2CC3CC1C[C@](O)(C3)C2)c1cnc(NCCO)nc1OC1CCC1 | 51 |
| O=C(N[C@H]1C2CC3CC1C[C@](O)(C3)C2)c1cnc(NC2COC2)nc1OC1CCC1 | 19 |
| CC(C)Oc1nc(NC2COC2)ncc1C(=O)N[C@H]1C2CC3CC1C[C@](O)(C3)C2 | 57 |
| CC(=O)N1CC[C@@H](Nc2ncc(C(=O)N[C@H]3C4CC5CC3C[C@](O)(C5)C4)c(C3CCCC3)n2)C1 | 18 |
| CC(=O)N1CCC(Nc2ncc(C(=O)N[C@H]3C4CC5CC3C[C@](O)(C5)C4)c(C3CCCC3)n2)CC1 | 46 |

Answer for every listed entry: what is its bioavailability? The entries follow.
1. O=C(N[C@H]1C2CC3CC1C[C@](O)(C3)C2)c1cnc(N[C@H]2CCC[C@H]2O)nc1C1CCCC1
2. CC(C)Oc1nc(N[C@H]2CCOC2)ncc1C(=O)N[C@H]1C2CC3CC1C[C@](O)(C3)C2
3. O=C(N[C@H]1C2CC3CC1C[C@](O)(C3)C2)c1cnc(N[C@@H]2CCOC2)nc1C1CCCC1
4. O=C(N[C@H]1C2CC3CC1C[C@](O)(C3)C2)c1cnc(N[C@@H]2CCOC2)nc1C1CCC1
5. O=C(N[C@H]1C2CC3CC1C[C@](O)(C3)C2)c1cnc(N[C@@H]2CCOC2)nc1OC1CCC1
6. O=C(N[C@H]1C2CC3CC1C[C@](O)(C3)C2)c1cnc(N[C@H]2CCOC2)nc1C1CCCC1
7. O=C(N[C@H]1C2CC3CC1C[C@](O)(C3)C2)c1cnc(NC2CCOCC2)nc1C1CC1
8. O=C1C[C@H](CNc2ncc(C(=O)N[C@H]3C4CC5CC3C[C@](O)(C5)C4)c(C3CCCC3)n2)CN1

*A*
[17, 83, 63, 99, 99, 61, 53, 9]
